Origin of the recorded values: ChEMBL document CHEMBL1833799

test system: DU-145; assay: Cytotoxicity against human DU145 cells at 2.5 to 80 uM after 24 hrs by cell counting kit analysis; assay type: functional, cell-based
Activity calls are given as the source filed them. The calls are words filed in the database; no cut-off is given here.
Possible outcomes: y for active, n for inactive

In [3]: df
Out[3]:
                      smiles_representation  qualitative_label
0  CN1C(=O)[C@]23CC4=CC=C[C@H](O)[C@H]4N2C(=O)[C@@]1(CO)SS3                  y
1  CN1C(=O)[C@@]23Cc4ccc([N+](=O)[O-])cc4N2C(=O)[C@@]1(CO)SS3                  y
2  CS[C@]1(CO)C(=O)N2[C@H]3C(=CC=C[C@@H]3O)C[C@@]2(SC)C(=O)N1C                  n
3  CS[C@@]1(CO)C(=O)N2c3cc([N+](=O)[O-])ccc3C[C@]2(SC)C(=O)N1C                  n
